pKd listing for selected binders.
- subjectOfTest: NOS1, P29475
- Sequence (P29475 9-101): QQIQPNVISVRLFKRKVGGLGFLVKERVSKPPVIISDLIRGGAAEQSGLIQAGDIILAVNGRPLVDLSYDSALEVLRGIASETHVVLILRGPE
- assayExplanation: holdup assay
- Set-up: key: below the threshold = too weak to quantify, mostly under pKd 3.1 to 4
- studyConditions: plain residues with an end cap or a label only (N-terminal biotin on a linker: ahx)
The answer should be a number; do not append a unit.

binder: QPRTWLQSPV [RTKN, Q9BST9]
pKd: 3.6

Input: Entry QDEKVKESYV [ABCA1, O95477] : reported pKd = ?
Output: 3.66
